test: GFP-Q80 aggregate reduction, neuronal-like cells, cell-based, NGF-treated PC12, GFPQ80 (AID 1614); settings: PC12 NGF-treated GFP-polyQ80 inclusion reduction;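 also: lower means fewer inclusions and 0 means no inclusions at all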
property name: inclusion score
# respond with the number and nothing more

Record excerpt, results attached:
INSERT INTO measurements (molecule, endpoint_result) VALUES
  ('CC(C(=O)O)c1ccc(C(=O)c2cccs2)cc1 (stereo unspecified)', 2),
  ('CCN(CC)CCOC(=O)C(Cc1cccc2ccccc12)CC1CCCO1 (stereo unspecified)', 2);

QUERY: Input Cc1cc(C(C)(C)C)c(O)c(C)c1CC1=NCCN1 , output reported inclusion score.
RESULT: 2

QUERY: Give reported inclusion score value for CCCCCC(C)N (stereo unspecified)
RESULT: 2

QUERY: In one line, give reported inclusion score of the entry CC(=O)OCC1=C(C(=O)O)N2C(=O)[C@@H](NC(=O)CSc3ccncc3)[C@H]2SC1 .
RESULT: 2

QUERY: Return value of inclusion score for input O=C1c2c(O)cccc2Cc2cccc(O)c21 , no commentary.
RESULT: 2
